System: EKVX
Test: NCI tumour cell line growth inhibition, 48 h
Calls of active or inactive are those of the source. Cut-off read from the data, not from the text of the source: active = GI50 up to about 1.1 µM and inactive = higher.
Value Kind: GI50

Molecule	GI50
CC1=NN(C(=O)c2ccccc2O)C(=O)/C1=C/c1ccc([N+](=O)[O-])cc1	1.2 µM (inactive)
CC[C@@H]1CC[C@@H]2[C@H](CC[C@]3(C)[C@@H](OC(C)=O)CC[C@@H]23)[C@H]1COC(C)=O	31.6 µM (inactive)
S=c1[nH]nc(Cn2c3ccc(Br)cc3c3nc4ccccc4nc32)n1C1CCCCC1	35 µM (inactive)
CC1(C)O[C@H]2Cn3c(c(C#N)c4ccccc43)[C@H]2O1	> 100 µM (inactive)
O=C1C[C@@]23CCC4(CC2CCC[C@H]3O1)OCCO4 (some centres not stated)	> 100 µM (inactive)
O=C(NN1C(=O)/C(=C/c2ccc(Cl)cc2)N=C1c1ccccc1)c1c(Cl)c(Cl)c(Cl)c(Cl)c1-c1nc2ccccc2[nH]1	19.4 µM (inactive)

Would you mind listing GI50 for each of the following molecules?
1. Cn1c2c(c3c(=O)[nH]ncc31)CCCc1ccccc1-2
2. CN1CCCN(C)CCCN(C)CCCN(C)CCC1
3. COC(=O)C1CC2CC1C1C2SC(F)(F)C1(F)F (configuration not stated)
4. Cc1ccc(C)c(NC(=O)C(=O)CC(=O)C2CCOC2=O)c1 (configuration not stated)
5. O=C(Nc1ccccc1)N1CC(CN2CCN(c3ccccc3)CC2)OC1=O (configuration not stated)
6. CSc1nncc2[nH]c(C)nc12
7. c1ccc(CNc2ccc3[nH]c4cnccc4c3c2)cc1
8. N#Cc1cc(N(CCCl)CCCl)c([N+](=O)[O-])cc1[N+](=O)[O-]

1: 11.8 µM (inactive); 2: > 100 µM (inactive); 3: > 100 µM (inactive); 4: > 100 µM (inactive); 5: > 100 µM (inactive); 6: > 100 µM (inactive); 7: 19 µM (inactive); 8: > 100 µM (inactive)

====

System: NCI-H23
Assay: NCI tumour cell line growth inhibition, 48 h
Activity calls are given as the source filed them. Rule as the data show it: active = GI50 up to about 1.1 µM and inactive = higher.
Value Kind: GI50

> print(dat)
                                   compound          assay.value
1  CC1(CCC2C=CCC2)CCCNC1=S (configuration not stated)   > 10 µM (inactive)
2  O=C1NC(Cc2ccc(O)cc2)C(=O)NC1Cc1ccc(O)cc1 (configuration not stated)  > 100 µM (inactive)

Would you mind listing GI50 for each of the following compounds?
1. CCCCCCCCOCC(O)COC(=O)CCCCCCC (configuration not stated)
2. COC(=O)C1(O)C(c2ccccc2)=NC2(C)CCCC21 (configuration not stated)
3. Cc1ccc(C(=O)OCC(C)C)cc1/N=N/N(C)C

1. 53.6 µM (inactive)
2. > 100 µM (inactive)
3. 34.8 µM (inactive)

Would you mind listing GI50 for each of the following compounds?
1. COc1cc(CC(C)N)ccc1O (configuration not stated)
2. COC(=O)c1ccccc1CC1Cc2cccc(C)c2C1=O (configuration not stated)
3. CCOC(=O)Cc1cc(=O)oc2cc(O)ccc12
4. CCOC(=O)/C(=C\c1ccc[nH]1)C(=O)c1ccccc1
5. Cc1ccccc1CN1CC2=C(CCN(Cc3ccccc3)C2=O)N2CCN=C12
6. O=C(OCCN=C1c2ccccc2CCc2ccccc21)c1ccccc1

1. > 100 µM (inactive)
2. 57.5 µM (inactive)
3. > 100 µM (inactive)
4. > 100 µM (inactive)
5. 4.62 µM (inactive)
6. > 100 µM (inactive)

Would you mind listing GI50 for each of the following compounds?
1. CSC1=N/C(=C\c2ccc(C)cc2)C(=O)N1CN1CCCCC1
2. COC(=O)[C@]1(c2ccc(N(C)C)cc2OC)C[C@@H]2CCCN(CCc3c1[nH]c1ccccc31)C2
3. NC(CO)C(=O)NCC(=O)O (configuration not stated)
4. O=c1c2cc([N+](=O)[O-])ccc2sc2ccsc12

> 100 µM (inactive)
18.9 µM (inactive)
> 100 µM (inactive)
> 100 µM (inactive)

Would you mind listing GI50 for each of the following compounds?
1. Nc1ncnc2c1ncn2C1C=C(CO)C(O)C1O (configuration not stated)
2. CC1(C)OC2OC(C(=O)c3ccccc3)C3OC(C)(C)OC3C2O1 (configuration not stated)

1. 2.83 µM (inactive)
2. > 100 µM (inactive)
